Readings of MIC Streptococcus pneumoniae (GC 1894) for the listed compounds
System: Streptococcus sp.
measurement.description: in vitro antibacterial evaluation, MIC by broth dilution
Type: cell-based
test.settings: broth dilution, 18 hours at 35° C.
assay.metric: MIC Streptococcus pneumoniae (GC 1894)

>  <compound>
COc1ccc2cc(C3OCC4OC(OC5C(CO)OC(Oc6ccc(CC7NC(=O)C(C(C)c8ccccc8)NC(=O)CNC(=O)C(CO)NC(=O)C(CC8CNC(=N)N8C8OC(CO)C(O)C(O)C8O)NC(=O)C(CC8CNC(=N)N8)NC7=O)cc6)C(O)C5O)C(O)C(O)C4O3)ccc2c1 (centres unmarked) [Example 190]

>  <measured>
4 µg/mL

$$$$
>  <compound>
CC(c1ccccc1)C1NC(=O)CNC(=O)C(CO)NC(=O)C(C(O)C2CNC(=N)N2C2OC(CO)C(O)C(O)C2O)NC(=O)C(C(O)C2CNC(=N)N2)NC(=O)C(Cc2ccc(OC3OC(CO)C(OC4OC5COC(c6ccccc6)OC5C(O)C4O)C(O)C3O)c(I)c2)NC1=O (centres unmarked) [Example 196]

>  <measured>
64 µg/mL

$$$$
